# key: entry, value: EC50
# System Under Test: GALR2 (Homo sapiens, UniProt O43603)
# Sequence (O43603 1-387): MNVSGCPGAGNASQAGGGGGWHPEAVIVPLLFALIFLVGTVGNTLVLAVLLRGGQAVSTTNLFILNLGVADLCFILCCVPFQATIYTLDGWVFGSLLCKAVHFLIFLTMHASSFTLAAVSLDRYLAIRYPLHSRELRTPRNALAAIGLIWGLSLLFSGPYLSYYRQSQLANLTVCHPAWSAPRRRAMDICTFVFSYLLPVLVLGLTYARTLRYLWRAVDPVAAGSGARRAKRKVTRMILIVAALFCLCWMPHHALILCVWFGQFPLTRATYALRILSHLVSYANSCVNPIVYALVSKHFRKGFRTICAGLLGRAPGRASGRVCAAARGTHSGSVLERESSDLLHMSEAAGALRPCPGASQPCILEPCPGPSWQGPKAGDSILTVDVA
# Assay Method Text: FLIPR assay (intracellular calcium release)
# Type: cell-based
# Parameters: expressed in transfected cells; host or cells: CHO-K1 (coexpressing Gα16)
# Test Settings: CHO-K1 cells coexpressing Gα16 and human GALR2
No end group written: not given here.
Kindly answer with a numeric value in nM, unit omitted.

>>> value_measured("PWTPQAMLYLKGAQG")
0.1

Record summary for NWTPQAMLYLKGAAG : reported EC50 = 0.1

The sequence identified as NWTPQAMLYLKGAQP registered its EC50 at 0.3

sequence NWTPQAMLYLKGPQG , EC50 observed: 0.3
